# targetUnderTest: UniProtKB P24941

compound	targetUnderTest	IC50, µM
Cn1cc(-c2cnn3c(N)c(Br)c([C@@H]4CC[C@H](N)C4)nc23)cn1	UniProtKB P24941	0.24
Cn1cc(-c2cnn3c(N)cc([C@H]4CC[C@@H](CO)NC4)nc23)cn1	UniProtKB P24941	12
Cn1cc(-c2cnn3c(N)c(Br)c(CCNCc4ccccc4)nc23)cn1	UniProtKB P24941	3.7
Nc1cc(C2CCCNC2)nc2c(-c3cscn3)cnn12 (stereo not shown)	UniProtKB P24941	10
N#CCc1ccc(-c2cnn3c(N)cc(C4CCCNC4)nc23)cc1 (stereo not shown)	UniProtKB P24941	12
Cn1cc(-c2cnn3c(N)c(Br)c(C4CNCCNC4)nc23)cn1	UniProtKB P24941	0.72
Cn1cc(-c2cnn3c(N)c(Br)c(C4CNCCN(S(C)(=O)=O)C4)nc23)cn1 (stereo not shown)	UniProtKB P24941	3.1
N#Cc1ccc(-c2cnn3c(N)cc(C4CCCNC4)nc23)cn1 (stereo not shown)	UniProtKB P24941	2.3
Nc1cc(C2CCCNC2)nc2c(-c3ccc(CO)cc3)cnn12 (stereo not shown)	UniProtKB P24941	1.4
Cn1cc(-c2cnn3c(N)c(Br)c([C@@H]4CC[C@@H](N)C4)nc23)cn1	UniProtKB P24941	0.12

* * *

# targetUnderTest: CDK2 (either cyclin A or E-dependent) (Homo sapiens, UniProt P24941)
pIC50: −log10 of the molar value.
Catalogue of pIC50 readings, one per entry.

molecule	pIC50
Cn1cc(-c2cnn3c(N)c(Br)c(N4CC[C@H](N)C4)nc23)cn1	5.92
Nc1cc(C2CCCNC2)nc2c(-c3cn[nH]c3)cnn12 (centres unmarked)	5.82
Cn1cc(-c2cnn3c(N)c(Br)c(CC4CNCCN4)nc23)cn1 (centres unmarked)	5.24
Nc1c(Br)c(C2CCCNC2)nc2c(-c3cnccn3)cnn12 (centres unmarked)	5.33
N#Cc1ccc(-c2cnn3c(N)c(Br)c(C4CCCNC4)nc23)cc1 (centres unmarked)	6.62
Nc1c(Br)c(C2CCCNC2)nc2c(-c3cscn3)cnn12 (centres unmarked)	5.24
Cn1cc(-c2cnn3c(N)cc([C@@H]4CC[C@H](N)C4)nc23)cn1	5.43
Nc1c(Br)c(C2CCCNC2)nc2c(-c3cnn(CCO)c3)cnn12 (centres unmarked)	6.70
Nc1cc(C2CCCNC2)nc2c(-c3cncs3)cnn12 (centres unmarked)	6.68
Nc1cc(C2CCCNC2)nc2c(-c3cnn(CCO)c3)cnn12 (centres unmarked)	5.37
CCNc1c(Br)c(C2CCCNC2)nc2c(-c3cnn(C)c3)cnn12 (centres unmarked)	5.24
Cn1cc(-c2cnn3c(N)cc(C4(F)CCCNC4)nc23)cn1 (centres unmarked)	5.22
Nc1c(Br)c(C2CCCNC2)nc2c(-c3cnoc3)cnn12 (centres unmarked)	6.80
Cn1cc(-c2cnn3c(NC4CCCC4)cc(C4CCCNC4)nc23)cn1 (centres unmarked)	4.60
Nc1c(Br)c(C2CCCNC2)nc2c(-c3cncs3)cnn12 (centres unmarked)	7.02
Nc1cc(C2CCCNC2)nc2c(-c3coc(C=NO)c3)cnn12 (centres unmarked)	7.40
Cn1cc(-c2cnn3c(N)c(Br)c(CC4CNCCO4)nc23)cn1 (centres unmarked)	5.21
CCn1cc(-c2cnn3c(N)c(Br)c(C4CCCNC4)nc23)cn1 (centres unmarked)	6.39
CN(C)C(=O)Cn1cc(-c2cnn3c(N)c(Br)c(C4CCCNC4)nc23)cn1 (centres unmarked)	5.85
Cn1cc(-c2cnn3c(N)c(Br)c(C4CCCN(CCO)C4)nc23)cn1 (centres unmarked)	5.76
Nc1c(Br)c(C2CCCNC2)nc2c(-c3ccc4c(c3)OCO4)cnn12 (centres unmarked)	6.24
CC(=O)N1CCNCC(c2nc3c(-c4cnn(C)c4)cnn3c(N)c2Br)C1 (centres unmarked)	5.59
COC(=O)[C@@H]1CC[C@H](c2cc(N)n3ncc(-c4cnn(C)c4)c3n2)CN1	4.85
N#Cc1cncc(-c2cnn3c(N)c(Br)c(C4CCCNC4)nc23)c1 (centres unmarked)	5.24
CC(C)n1cc(-c2cnn3c(N)cc(C4CCCNC4)nc23)cn1 (centres unmarked)	5.08
CC(C)N1CCNCC(c2nc3c(-c4cnn(C)c4)cnn3c(N)c2Br)C1 (centres unmarked)	5.59
C/C(=N\O)[C@@H]1CC[C@H](c2nc3c(-c4cnn(C)c4)cnn3c(N)c2Br)CN1	6.28
Cn1cc(-c2cnn3c(N)c(Br)c(C4CCCCN4)nc23)cn1 (centres unmarked)	4.55
N#Cc1ccc(-c2cnn3c(N)c(Br)c(C4CCCNC4)nc23)cn1 (centres unmarked)	6.06
N#Cc1cc(-c2cnn3c(N)c(Cl)c(C4CCCNC4)nc23)co1 (centres unmarked)	6.68
CC(C)Cc1ncc(-c2cnn3c(N)cc(C4CCCNC4)nc23)s1 (centres unmarked)	5.89
Cn1cc(-c2cnn3c(N)cc([C@@H]4CC[C@@H](N)C4)nc23)cn1	5.25
Nc1cc(C2CCCNC2)nc2c(-c3ncon3)cnn12 (centres unmarked)	5.60
Cn1cc(-c2cnn3c(N)c(I)c(C4CCCNC4)nc23)cn1 (centres unmarked)	7.70
N#Cc1cc(-c2cnn3c(N)c(Br)c(C4CCCNC4)nc23)co1 (centres unmarked)	6.85
CC(N)CCc1nc2c(-c3cnn(C)c3)cnn2c(N)c1Br (centres unmarked)	5.92
Nc1cc(C2CCCNC2)nc2c(-c3cnoc3)cnn12 (centres unmarked)	6.10
Cn1cc(-c2cnn3c(NCc4ccccc4)cc(C4CCCNC4)nc23)cn1 (centres unmarked)	4.51
